Test system: indomethacine induced ulcers
Test: Effectiveness against indomethacine-induced ulcers in the rat
Assay type: in vivo, rats
Settings: Rattus norvegicus, po; dosage 75 mg/kg p.o., 1 h before 20 mg/kg indomethacine, 24 h
Protocol: 2. Effectiveness against indomethacineinduced ulcers in the rate (Modified test procedure according to […] The mean value and the standard deviation of the numbers of ulcers is calculated, and subsequently the inhibiting activity of the test compounds and a standard compound are calculated as percent inhibition compared with the blank control group.
Kindly supply the reported inhibition in vivo at 75 mg/kg values for the records listed here.
State the value, then name its unit.

Provide the reported inhibition in vivo at 75 mg/kg of each entry below, same order.
1. CCCN(CC(O)CNC(=O)c1ccc(OC)c(OC)c1)c1ccc(Cl)cc1 (stereo not shown) [Compound 17]
2. COCCN(CC(O)CNC(=O)c1ccco1)c1ccc(Cl)cc1 (stereo not shown) [Compound 13]
3. COc1ccc(C=CC(=O)NCC(O)CN(C)c2ccc(Cl)cc2)cc1OC (stereo not shown) [Compound 10]
4. COc1ccc(C(=O)NCC(O)CN(C)c2ccc(Cl)c(Cl)c2)cc1OC (stereo not shown) [Compound 16]
5. CN(CC(O)CNC(=O)c1ccco1)c1ccc(Cl)c(Cl)c1 (stereo not shown) [Compound 12]
6. CN(CC(O)CNC(=O)c1ccccc1F)c1ccc(Cl)c(Cl)c1 (stereo not shown) [Compound 18]
7. CC(C)c1ccc(N(C)CC(O)CNC(=O)c2ccco2)cc1 (stereo not shown) [Compound 19]
8. COc1ccc(C(=O)NCC(O)CN(C)c2ccc(F)cc2)cc1OC (stereo not shown) [Compound 15]

1: 34%; 2: 35%; 3: 32%; 4: 38%; 5: 29%; 6: 33%; 7: 31%; 8: 32%

Provide the reported inhibition in vivo at 75 mg/kg of each entry below, same order.
1. CN(CC(O)CNC(=O)Cc1ccccc1)c1ccc(Cl)cc1 (stereo not shown) [Compound 8]
2. COc1ccc(C(=O)NCC(O)CNc2ccccc2Cl)cc1OC (stereo not shown) [Compound 14]

26%
33%
